Molecular target: T1, Processed stabilized hMPV PreF trimer (115BV) (human metapneumovirus, strain B2)
T1 construct: also called Processed hMPV PreF trimer; processed PreF
Assay: BLI, mAb on anti-human Fc sensor
quantityMeasured: Octet binding response

// known answers, use as guide
[[record]]
binder = "M1A04 (antibody, V domains shown, IgG) VH: EVQLVESGGGLVRPGGSLRLSCAASGFNVRNYYMSWVRQAPGKGLEWISVIYGGGTTFYAGSVKGRFTISRDDSKSTLFLQMNSLRADDTAVYYCARDPGTVMSTENLQGMDVWGQGTTVTVSS VL: DIQMTQSPSSLSASVGDRVTITCRASQTIRSYLNWYQQKPGKAPNLLIYAATSLQSGVPSRFSGSGSGTDFTLTISSLQPEDSATYYCQQSFSTLYSFGQGTRLEIK"
endpointvalue = "0.557 nm"

[[record]]
binder = "M2C06 (antibody, V domains shown, IgG) VH: QVQLVQSGAEVKKPGSSVKVSCRPSGGTFSNDILSWVRQAPGQRLEWMGRIIPLVNMTNIAQKFQGRLTLVADKSTAIVHLELGSLRAEDTAIYYCVRDLPSAGFPAPFDIWGQGTRVTVSA VL: EIVLTQSPGSLSLSPGARATVSCRASQSLNSASLVWYQQRVGQAPRLLMFGASNRATGIPDRFSGSGSGTDFTLTISRLEPEDFAVYYCQQYAFSPPTFGQGTKVEIK"
endpointvalue = "0.472 nm"


Next:
Ask: Given the entry M4B11 (antibody, V domains shown, IgG) VH: QVQLVQSGTEVQTPGASVKVSCKTSGYIFTGYFMHWVRQAPGQGFEWMGWVNPYSGATTYAQKFQGRVTMTRDTSISTVYMELSRLTSDDTAIYYCAKDTSNSGPDLLEHWGQGTLVIVSS VL: EIVLTQSPATLSLSPGERATLSCRASQSISNFLVWYQRKPGQAPRLLIFDVSKRATGIPTRFSGSGSGTDFTLTISSLEPEDFAVYYCQQRSNWPPGYTFGQGTKLEIK , report its measured Octet binding response.
Reply: 0.0489 nm
